assay: amyloid nucleation score (Sup35N fusion, yeast selection) (log enrichment); library NNK2; higher = more nucleation; inactive = no reads after selection;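 also: zero at mode of non-aggregating sequences after 7 days selection at 30°C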
Is amyloid nucleation score at least -0.3? Then y. If not, n.

{"columns": ["substance", "classification"],
 "data": [
  ["DCDVSVNSVYITVKSAICAV", "y"],
  ["PLYEELVWGRFRLMVYTGRF", "y"],
  ["TWRYRKMFASASFA", "y"]
]}

Entry NELCRKPLNLGCISSYVFIE : is its amyloid nucleation score no less than -0.3?
n

Entry to check: CRSHVAGFDAHTNILLKPIC
n

Then KFGNSCR ?
n

Next substance: IVVFSGVQVRGHCWNVKGAN
y

----------
experiment: amyloid nucleation score (Sup35N fusion, yeast selection) (log enrichment); library NNK1; higher = more nucleation; inactive = no reads after selection
If the reported amyloid nucleation score equals or exceeds -0.6, assign 1. If not, assign 0.

{"columns": ["record-sequence", "classification"],
 "data": [
  ["IASFKWGFLMDYNLYVSSSG", 1],
  ["SYGMSYSVVWNWCECNSA", 1],
  ["YGKSYVIDGVVWGRQDSWES", 0],
  ["EHSSVCLESSQYVRMVVIKQ", 1],
  ["VEEGNMRCSNLMTLEHTTHK", 1],
  ["WEYEAGNFDSVMMVLLLSCY", 1],
  ["YRAAQGHLASELYGLVTV", 1],
  ["IVLWCTWYYNWNWPSALFRM", 1]
]}

Hi, just wondering whether YAFARCLTHINVVALIVRMC shows amyloid nucleation score of -0.6 or higher.
0

Same lookup for VARFCNGYTHNIAMCTGIQR , please.
0

Another: YTRMLLRGAIETGFYPNMLE
0

Entry to check: MSGVRYLCCL
1

Field entry: SSRYFLFLAHTHWLCTMTCP
1

----------
assay: amyloid nucleation score (Sup35N fusion, yeast selection) (log enrichment); library NNK2; higher = more nucleation; inactive = no reads after selection
measure-name: amyloid nucleation score

Consider the following illustrative entries.
{"columns": ["substance", "amyloid nucleation score"],
 "data": [
  ["LWGLYNREFNAWRGHFVQDG", "inactive"],
  ["VMPGSLCLVRVFFCIMHVLY", "inactive"],
  ["PNGFVFSCNRSPMAGMGIDE", -2.14],
  ["TSFCTSVIGIVIHQDFAVDG", 5.57],
  ["SCENTSSQELWYTCSIDLKL", 0.472],
  ["SVQKIEIMYYRRKTGVYEFE", 3.4]
]}

Quick check: amyloid nucleation score of NLNDLVVLELYSRFLLNWFE ?
-0.282

Here is the next substance: QSSTYLSPRLHTISDIPYNF
-0.781

Same again, this time with PSGFRSLLFEVHHFSRWAYD
0.691

Same question for VIFYRSFTVS please.
3.64

Subsequent entry: INSSRSFVYDFNTWNFQDVR
-0.089

Next record, please: ERDGSIMCSWTVSEHKSCGY
inactive

Also HLVSSRGRMWPPFAPVGKQD ?
0.492

Field entry: KWITVYETVNCMSGWFIQDL
6.62

----------
experiment: amyloid nucleation score (Sup35N fusion, yeast selection) (log enrichment); library NNK1; higher = more nucleation; inactive = no reads after selection
Note: every record was labeled by where its amyloid nucleation score sits among low value = under 0.1, medium value = from 0.1 up to 0.6, high value = 0.6 and over

{"columns": ["substance", "classification"],
 "data": [
  ["RIVYLCSSGCVRKCWLLCSG", "high value"]
]}

Assign a category based on measured amyloid nucleation score for LTSTDISMGRCAVHQSYLFK and give only the class name.
high value

Next entry: IGGCWLLQMN
medium value

Same question, SINVPPHSGHELH this time
high value

Let us now turn to TFRGNRIINQNWGYHCMWWC
high value

Same for FPDGEYPMTYTLWELKYVFV
low value

Now the same for HCLSNCSSRVGGFSFNAPVA
medium value

Lookup CVCYRTDRVARTGCNEPSMQ
medium value

Here is the next substance: YYYYPNGDCEKK
low value

----------
# maps each entry to its amyloid nucleation score
assay: amyloid nucleation score (Sup35N fusion, yeast selection) (log enrichment); library NNK1; higher = more nucleation; inactive = no reads after selection
Answer field: number only, no words.

The following sequences have reported results that may help.
{"columns": ["record-sequence", "amyloid nucleation score"],
 "data": [
  ["SLCRGATGGDGWWGVCSSA", 0.614],
  ["ALKWSTLLTLFLGYSHIVSM", 1.46],
  ["GSYECFHHLYCGWQSLLWAN", 0.854],
  ["FLEFWPSVTVYSRCFLVFGR", -1.06],
  ["SAASPFFFSDCGWPSGILNY", 1.26],
  ["IWNSVARFRYSSMGFVVSAG", 0.898],
  ["NHGCQIFRG", 0.667],
  ["SSWYVITATFIKDCGMTARR", 4.03],
  ["PSTVCMFPRWLAVVRLVLQT", 0.79],
  ["LRKVGQGI", 0.066]
]}

API: the following record is the query input.
Which amyloid nucleation score is listed for VGICMWHN ?
0.718

----------
experiment: amyloid nucleation score (Sup35N fusion, yeast selection) (log enrichment); library NNK2; higher = more nucleation; inactive = no reads after selection
measure-name: amyloid nucleation score
Lab note: record the figure alone, no unit after it.

The following substances have reported results that may help.
{"columns": ["substance", "amyloid nucleation score"],
 "data": [
  ["LCVSAVLKLVGNLWDDEREC", -0.091],
  ["TFCVRQLYLSML", 0.833],
  ["MRSFCFSVQNIQVTYHVGLA", 3.94],
  ["FNIPGHSH", -1.51],
  ["RGALVICCNTLSCGRGRLGD", 10.2],
  ["YLSDNHYWCWSYESF", -0.725],
  ["LLYTDYMMIYCIAFMLSDDY", -0.916],
  ["VCGMLTVIHWFLVIVVIDLV", 0.863]
]}

Please report the recorded amyloid nucleation score for NLLLFWSSHLSNECGSNSLG .
4.66

Next substance up: ASGEDVNPSVCFHTTAMLYQ
0.98

What do you get for VLFKIIRLRLENIPSSWWVI ?
0.152

And then NREIMMD , what is it?
-0.184

Another substance to look at: ALCKFRDFFVMYNTGWHTVQ
-0.935

----------
test: amyloid nucleation score (Sup35N fusion, yeast selection) (log enrichment); library NNK3; higher = more nucleation; inactive = no reads after selection
measure-name: amyloid nucleation score

{"columns": ["record-sequence", "amyloid nucleation score"],
 "data": [
  ["LEYVCMRH", "inactive"],
  ["MLYNCRQGCKRSW", 0.248],
  ["RSKEMNVKASKNSMVHVSEV", "inactive"],
  ["MSSFTAYLLNLR", "inactive"],
  ["LYFSNRTIKEYIVN", "inactive"],
  ["GFFCIYWGHWGFSES", "inactive"]
]}

Data request, read-out amyloid nucleation score, for CVFDSCSSLYKDMYTLCHVS
inactive

----------
experiment: amyloid nucleation score (Sup35N fusion, yeast selection) (log enrichment); library NNK2; higher = more nucleation; inactive = no reads after selection
measure-name: amyloid nucleation score

{"columns": ["substance", "amyloid nucleation score"],
 "data": [
  ["KLTPYRISKMPSWLSA", "inactive"],
  ["FSFRLYMEFLWGI", "inactive"],
  ["RLCVILCQVMTWRMAVSILE", 0.228],
  ["GGFSLMIFVCAGSHLG", 5.26]
]}

What does the data say about its amyloid nucleation score? Entry: VFYNLGVHMWLWWSGIVLVR
0.775

And what about the substance TYEMSVVGVEWWVTGQLTIC ?
1.68

Lookup FDHMWLSGQVQWFLNYTTSL
inactive

Likewise for TVAVRSPIT ?
-0.686

And the next one, HVAQTS ?
1.04

----------
Each entry below lists one item and its recorded amyloid nucleation score value.
test: amyloid nucleation score (Sup35N fusion, yeast selection) (log enrichment); library NNK1; higher = more nucleation; inactive = no reads after selection
Returns: the value as a bare number; no unit string appended.

{"columns": ["record-sequence", "amyloid nucleation score"],
 "data": [
  ["IYNRKTYFMTTSATVVFAVP", 0.696],
  ["YANTTWSLTLTTVQHRNVAD", 3.35],
  ["LYPMGYVRRCI", -0.29],
  ["RYAISYNLRVVGLISMYRNT", 0.655],
  ["HVDDIWWTTFMYFPRCHLHV", 0.858],
  ["ICVNESKKVFQVFIANIGRG", 4.86],
  ["MLSMFGWISSIFVYYYLNKR", 0.571],
  ["RFFMTHSYELYLEFRGAARR", 1.28],
  ["IRPINKYRIVLIWVSFVRGE", 0.718],
  ["WSGIIELC", 1.74]
]}

Can you share its amyloid nucleation score? I mean this sequence: RRPASFLFFTYPILLQVFTF
-1.22

DSEKGSVLYLVMRGMNCVSI ?
4.69
